Tested on: Escherichia coli TOP10;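 also: peptides expressed intracellularly from a pBAD plasmid library in pooled LB shake-flask culture, induced with 0.3% L-arabinose, DNA abundance read by NGS, three biological replicates, DESeq2 with apeglm shrinkage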
measurement.notes: shrunken log2 fold change of peptide-encoding DNA abundance (4.5 h post-induction vs induction); higher = less antimicrobial activity (less host growth inhibition)
test.context: time post-induction: 4.5 h; library: site-saturation at positions 5, 18, 19, 20
endpoint.label: shrunken log2 fold change
Enter the number alone.

Study these solved cases before continuing.
[
  {
    "primary.sequence": "RRIRRRPPRLPRPRPRPPILPRP",
    "shrunken log2 fold change": -0.1
  },
  {
    "primary.sequence": "RRIRVRPPRLPRPRPRPHTRPRP",
    "shrunken log2 fold change": -0.178
  },
  {
    "primary.sequence": "RRIRYRPPRLPRPRPRPPQRPRP",
    "shrunken log2 fold change": 0.00441
  },
  {
    "primary.sequence": "RRIRLRPPRLPRPRPRPYACPRP",
    "shrunken log2 fold change": -0.0291
  },
  {
    "primary.sequence": "RRIRGRPPRLPRPRPRPDLVPRP",
    "shrunken log2 fold change": 0.529
  },
  {
    "primary.sequence": "RRIRQRPPRLPRPRPRPGTKPRP",
    "shrunken log2 fold change": 0.0136
  },
  {
    "primary.sequence": "RRIRHRPPRLPRPRPRPYPMPRP",
    "shrunken log2 fold change": -0.2
  },
  {
    "primary.sequence": "RRIRARPPRLPRPRPRPGDYPRP",
    "shrunken log2 fold change": 0.226
  }
]

// fetch Escherichia coli TOP10 shrunken log2 fold change for RRIRMRPPRLPRPRPRPQRFPRP
-0.0093

// fetch Escherichia coli TOP10 shrunken log2 fold change for RRIRTRPPRLPRPRPRPIVDPRP
0.0147

// fetch Escherichia coli TOP10 shrunken log2 fold change for RRIRPRPPRLPRPRPRPKKEPRP
0.0526

// fetch Escherichia coli TOP10 shrunken log2 fold change for RRIRMRPPRLPRPRPRPVMIPRP
0.021

// fetch Escherichia coli TOP10 shrunken log2 fold change for RRIRGRPPRLPRPRPRPKGRPRP
0.792

// fetch Escherichia coli TOP10 shrunken log2 fold change for RRIRFRPPRLPRPRPRPPWTPRP
0.123

// fetch Escherichia coli TOP10 shrunken log2 fold change for RRIRCRPPRLPRPRPRPKYRPRP
-0.326

// fetch Escherichia coli TOP10 shrunken log2 fold change for RRIRMRPPRLPRPRPRPHMKPRP
-0.158

// fetch Escherichia coli TOP10 shrunken log2 fold change for RRIRIRPPRLPRPRPRPEIPPRP
-0.0249

// fetch Escherichia coli TOP10 shrunken log2 fold change for RRIRRRPPRLPRPRPRPINKPRP
-0.431

// fetch Escherichia coli TOP10 shrunken log2 fold change for RRIRDRPPRLPRPRPRPTDTPRP
0.146

// fetch Escherichia coli TOP10 shrunken log2 fold change for RRIRLRPPRLPRPRPRPDCHPRP
0.092

// fetch Escherichia coli TOP10 shrunken log2 fold change for RRIRPRPPRLPRPRPRPIQIPRP
-0.119

// fetch Escherichia coli TOP10 shrunken log2 fold change for RRIRQRPPRLPRPRPRPVWTPRP
0.0102

// fetch Escherichia coli TOP10 shrunken log2 fold change for RRIRKRPPRLPRPRPRPEMKPRP
0.682

// fetch Escherichia coli TOP10 shrunken log2 fold change for RRIRERPPRLPRPRPRPCWRPRP
0.27

// fetch Escherichia coli TOP10 shrunken log2 fold change for RRIRDRPPRLPRPRPRPGERPRP
0.276

// fetch Escherichia coli TOP10 shrunken log2 fold change for RRIRRRPPRLPRPRPRPFRTPRP
-0.0909
